- assayText: Ussing-chamber permeability across excised mouse intestinal segments
- Assay type: in vitro ADME, mice
- conditionSummary: Normal (naive) mice; 1 mg/ml mucosal side, pH 7.4, 37°C
endpointName: Peff, Colon (mean ± SD) (×10⁻⁶ cm/s)

(A) CCOc1nc2cccc(C(=O)O)c2n1Cc1ccc(-c2ccccc2-c2nnn[nH]2)cc1
(B) CCCCc1ncc(CO)n1Cc1ccc(-c2ccccc2-c2nn[nH]n2)cc1
**Query** Compare Peff, Colon (mean ± SD): is it lower for A or for B ? // caller expects the label of the chosen entry
**Result** B

====

- assayText: Plasma levels of orally administered AT1a antagonists in DSS-treated mice
- Type: in vivo
- conditionSummary: mouse, plasma, po, 10 mg/kg
endpointName: Cmax at 2 h (ng/mL)

{"smilesString": "CCCCc1ncc(CO)n1Cc1ccc(-c2ccccc2-c2nn[nH]n2)cc1", "Cmax at 2 h / ng/mL": 37.8}

(P) CCCCc1nc(Cl)c(CO)n1Cc1ccc(-c2ccccc2-c2nn[nH]n2)cc1
(Q) CCOc1nc2cccc(C(=O)O)c2n1Cc1ccc(-c2ccccc2-c2nnn[nH]2)cc1
**Query** Compare Cmax at 2 h: is it lower for P or for Q ? // caller expects the label of the chosen entry
**Result** P
